molecular target: Short transient receptor potential channel 4 (Mus musculus, UniProt Q9QUQ5); experiment: mouse TRPC4 channel activators, dose response, cell-based, HEK293 TRPC4/mu-opioid, Fluo-4 calcium (AID 434937); assay type: functional
Sequence (Q9QUQ5 whole entry): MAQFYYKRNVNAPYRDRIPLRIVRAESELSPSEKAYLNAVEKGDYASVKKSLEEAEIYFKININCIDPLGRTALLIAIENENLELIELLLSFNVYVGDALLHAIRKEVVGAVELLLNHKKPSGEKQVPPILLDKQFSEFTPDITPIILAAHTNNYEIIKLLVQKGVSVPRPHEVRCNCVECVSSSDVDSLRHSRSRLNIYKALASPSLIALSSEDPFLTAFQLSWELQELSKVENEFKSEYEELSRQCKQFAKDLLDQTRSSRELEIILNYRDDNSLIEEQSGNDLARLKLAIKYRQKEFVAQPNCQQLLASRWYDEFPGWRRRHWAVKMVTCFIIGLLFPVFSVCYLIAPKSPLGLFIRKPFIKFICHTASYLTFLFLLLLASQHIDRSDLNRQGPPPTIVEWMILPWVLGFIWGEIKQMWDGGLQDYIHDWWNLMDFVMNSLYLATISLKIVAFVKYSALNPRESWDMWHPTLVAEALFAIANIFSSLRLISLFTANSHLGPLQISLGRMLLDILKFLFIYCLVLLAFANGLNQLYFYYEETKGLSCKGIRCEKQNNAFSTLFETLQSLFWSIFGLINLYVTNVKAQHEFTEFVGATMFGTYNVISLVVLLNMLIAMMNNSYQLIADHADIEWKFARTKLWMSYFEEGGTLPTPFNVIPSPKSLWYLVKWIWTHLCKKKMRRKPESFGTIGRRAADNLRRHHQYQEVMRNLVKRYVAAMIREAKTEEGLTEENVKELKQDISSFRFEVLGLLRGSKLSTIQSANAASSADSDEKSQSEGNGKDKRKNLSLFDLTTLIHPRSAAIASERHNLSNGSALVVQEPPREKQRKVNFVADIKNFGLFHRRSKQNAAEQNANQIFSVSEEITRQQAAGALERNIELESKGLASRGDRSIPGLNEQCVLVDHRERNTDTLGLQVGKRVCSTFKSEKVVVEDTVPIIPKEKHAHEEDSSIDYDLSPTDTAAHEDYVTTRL
The source made the active and inactive calls.
Parameter: EC50

Compound	EC50
CN(C)C(CNC(=O)Cc1c(Cl)cccc1Cl)c1ccccc1 (configuration not stated)	376 nM (active)

*Q* Supply measured EC50 of O=C1OC(c2ccc([N+](=O)[O-])cc2)=N/C1=C/N1CC2CC(C1)c1cccc(=O)n1C2 (configuration not stated) in your reply.
*A* 10600 nM (active)

*Q* Supply measured EC50 of "CN1CCN(C(=O)c2cccn(Cc3c(Cl)cccc3Cl)c2=O)CC1" in your reply.
*A* 668 nM (active)

*Q* Supply measured EC50 of "CCCOc1ccc(C(=O)NNC(=S)NC(=O)c2ccco2)cc1" in your reply.
*A* 5960 nM (active)

*Q* Supply measured EC50 of "O=[N+]([O-])c1cc(C(F)(F)F)ccc1N1CCCNCC1" in your reply.
*A* 841 nM (active)

*Q* Supply measured EC50 of Cc1ccccc1[N+]1=C2SCCN2C(O)(c2ccccc2)C1 (configuration not stated) in your reply.
*A* 335 nM (active)

*Q* Supply measured EC50 of CN(C)C(CNC(=O)c1ccc(C(F)(F)F)cc1)c1ccco1 (configuration not stated) in your reply.
*A* 267 nM (active)

====

Calls of active or inactive are those of the source.
The reader will find IC50 measurements below, all made with Estrogen receptor beta (Homo sapiens, UniProt Q92731).
Sequence (Q92731 whole entry): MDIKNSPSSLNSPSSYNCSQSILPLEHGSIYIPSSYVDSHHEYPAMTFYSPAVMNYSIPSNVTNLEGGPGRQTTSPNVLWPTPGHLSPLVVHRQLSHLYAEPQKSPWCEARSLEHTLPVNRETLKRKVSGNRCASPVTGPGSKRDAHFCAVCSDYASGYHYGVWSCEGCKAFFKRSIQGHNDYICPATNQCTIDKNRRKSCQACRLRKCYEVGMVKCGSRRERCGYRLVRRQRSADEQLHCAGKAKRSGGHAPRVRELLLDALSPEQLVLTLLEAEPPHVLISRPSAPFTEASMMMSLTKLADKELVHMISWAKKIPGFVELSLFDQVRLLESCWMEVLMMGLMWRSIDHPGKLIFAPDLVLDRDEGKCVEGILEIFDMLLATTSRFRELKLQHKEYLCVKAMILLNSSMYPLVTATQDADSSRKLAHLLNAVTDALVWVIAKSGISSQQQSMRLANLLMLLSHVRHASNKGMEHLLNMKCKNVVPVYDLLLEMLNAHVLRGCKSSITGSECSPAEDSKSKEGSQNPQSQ

Molecule	Reported result
NC(=O)c1c(NC(=O)c2cc3ccccc3o2)sc2c1CCC2	> 50 µM (not active)
CCOC(=O)C1=C(C)NC(=O)NC1c1ccco1 (centres undefined)	9.28 µM (active)
COc1ccccc1NC(=O)NC(N)=O	> 50 µM (not active)

Read the next record carefully.
*Q* Supply measured IC50 of "Cc1ccccc1NC(=O)Cn1cnc2c1c(=O)n(C)c(=O)n2C" in your reply.
*A* > 50 µM (not active)

====

molecular target: Induced myeloid leukemia cell differentiation protein Mcl-1 (Homo sapiens); type: functional
Sequence (Q07820 whole entry): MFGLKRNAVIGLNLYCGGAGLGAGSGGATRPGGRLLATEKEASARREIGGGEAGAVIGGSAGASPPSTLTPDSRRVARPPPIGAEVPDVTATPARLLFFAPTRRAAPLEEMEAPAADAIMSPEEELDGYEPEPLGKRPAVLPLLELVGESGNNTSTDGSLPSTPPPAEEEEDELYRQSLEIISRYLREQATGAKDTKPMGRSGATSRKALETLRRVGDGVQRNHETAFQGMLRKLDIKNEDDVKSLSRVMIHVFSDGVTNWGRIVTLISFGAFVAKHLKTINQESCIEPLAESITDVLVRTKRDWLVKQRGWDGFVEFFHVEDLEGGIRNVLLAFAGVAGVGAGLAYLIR
The source made the active and inactive calls.
Below, each entry is listed with its recorded IC50.

# count of solved cases: 4
Molecule	IC50
O=C(Nc1ccc(N2CCCC2)cc1)c1ccc(Br)o1	0.932 µM (active)
C=C(C)C(=O)Nc1cccc(C2=NOC3(C2)C[C@@H](C(N)=O)N(C(=O)c2ccc(Cl)cc2)C3)c1 (stereo partly drawn)	1.54 µM (active)
Cc1nn(-c2ccc(Br)cc2)c(O)c1/C=N/c1ccc(S(=O)(=O)Nc2nccs2)cc1	6 µM (active)
O=C(O)c1ccccc1N/N=C/c1cc(Br)cc(Br)c1O	8.04 µM (active)

Read the next record carefully.
*Q* Supply measured IC50 of Cc1ccc(CNC(=O)c2ccc3c(=O)[nH]c4c(C(=O)NCC5CCCO5)sc(=S)n4c3c2)cc1 (stereo not drawn) in your reply.
*A* 6.74 µM (active)

====

The reader will find AC50 measurements below, all made with UniProt:P11712.
Sequence (P11712 whole entry): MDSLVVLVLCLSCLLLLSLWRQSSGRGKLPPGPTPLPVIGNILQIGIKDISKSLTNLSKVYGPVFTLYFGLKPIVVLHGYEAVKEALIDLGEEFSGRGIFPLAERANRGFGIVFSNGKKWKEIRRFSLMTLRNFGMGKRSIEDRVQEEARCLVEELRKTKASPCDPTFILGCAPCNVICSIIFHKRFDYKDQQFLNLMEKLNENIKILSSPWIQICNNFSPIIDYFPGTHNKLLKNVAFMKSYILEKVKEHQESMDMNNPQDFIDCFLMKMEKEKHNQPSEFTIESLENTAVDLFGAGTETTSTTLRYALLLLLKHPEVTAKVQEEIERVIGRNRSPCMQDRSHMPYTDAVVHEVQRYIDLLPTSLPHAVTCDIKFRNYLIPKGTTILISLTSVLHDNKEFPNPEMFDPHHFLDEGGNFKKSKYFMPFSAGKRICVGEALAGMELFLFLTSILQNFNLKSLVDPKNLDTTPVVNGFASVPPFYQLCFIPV

# count of solved cases: 2
Compound	Measurement target	AC50
COc1ccc2c(CC(=O)NCC3CCC(C(=O)O)CC3)cc(=O)oc2c1 (stereo not given)	UniProt:P11712	15.8 µM (inconclusive)
O=C(CN(c1ccccc1)S(=O)(=O)c1ccccc1[N+](=O)[O-])NN=C1CCCCCCC1	UniProt:P11712	1.58 µM (inconclusive)

*Q* GET AC50 | system: UniProt:P11712 | item: "Cc1cc(C)c2c(-n3cccc3)nn(CC#N)c2n1"
*A* 14.1 µM (inconclusive)

*Q* GET AC50 | system: UniProt:P11712 | item: "CCOC(=O)c1cc(NC(=O)c2ccc(OC)cc2)c(=O)oc1-c1ccccc1"
*A* 2.24 µM (inconclusive)

*Q* GET AC50 | system: UniProt:P11712 | item: "CCOC(=O)c1sc(NC(=O)CCCCCN2C(=O)c3cccc4cccc(c34)C2=O)nc1C"
*A* 2.24 µM (inconclusive)

*Q* GET AC50 | system: UniProt:P11712 | item: "CC(C)C(=O)Nc1ccc(C(=O)NNC(=O)CCCOc2ccc(Cl)cc2Cl)cc1"
*A* 2.51 µM (inconclusive)
